test system: cervical cancer Hela; assay: cells; type: cell-based; conditions: cultured 48 h, MTT
measured.quantity: log10 of IC50 (log10 of the value in nM)

[[record]]
compound = "COc1cc(C2c3cc4c(cc3C(Nc3cccc5c3C(=O)c3ccccc3C5=O)C3COC(=O)C23)OCO4)cc(OC)c1O (stereo not drawn) [Compound 20]"
readout_value = 3.93

[[record]]
compound = "COc1cc(C2c3cc4c(cc3C(Nc3cccc5cnccc35)C3COC(=O)C23)OCO4)cc(OC)c1O (stereo not drawn) [Compound 28]"
readout_value = 3.28

[[record]]
compound = "COc1cc(C2c3cc4c(cc3C(Nc3cccc5ccc(C)nc35)C3COC(=O)C23)OCO4)cc(OC)c1O (stereo not drawn) [Compound 30]"
readout_value = 3.62

[[record]]
compound = "COc1cc(C2c3cc4c(cc3C(Nc3ccc5c(c3)C(=O)c3ccccc3C5=O)C3COC(=O)C23)OCO4)cc(OC)c1OC (stereo not drawn) [Compound 2]"
readout_value = 3.40

[[record]]
compound = "COc1cc(C2c3cc4c(cc3C(Nc3ccc5cc[nH]c5c3)C3COC(=O)C23)OCO4)cc(OC)c1OC (stereo not drawn) [Compound 16, 4β-NH-(6-aminoindole) podophyllotoxin]"
readout_value = 2.60

